Biological target: delta opioid receptor (Rattus norvegicus)
Construct: the forebrains were homogenized in Tris buffer in a Teflon®-glass homogenizer; from tissue; host or cells: forebrain of male Wistar rats (particulate membrane preparation)
Assay: Rat brain delta opioid receptor binding assay
Conditions: rDOR (Ki, nM): Rat delta opioid receptor binding constant, rat forebrain membranes; [3H]DPDPE or [3H]naltrindole, 25° C., 2.5 h
Let's look at some compounds and their measured Ki.
Write the quantity with the unit trailing the number.

// worked examples, Ki included
CN1C2CCC1CC(=C1c3ccccc3Oc3c(O)cccc31)C2 [Cpd 19]	28.3 nM
O=C(NCCc1ccccc1)c1cccc2c1Oc1ccccc1C2=C1CC2CCC(C1)N2 (single isomer, unassigned) [Cpd 56]	49.6 nM
NC(=O)c1cccc2c1Oc1ccccc1C2=C1CC2CCC(C1)N2Cc1ccoc1 [Cpd 4]	2.3 nM

Param readout= Ki; system= delta opioid receptor (Rattus norvegicus); entry= Oc1cccc2c1Oc1ccccc1C2=C1CC2CCC(C1)N2Cc1ccoc1 (single isomer, unassigned) [Cpd 57] ; returns value.
246 nM

Test system delta opioid receptor (Rattus norvegicus); read-out Ki; what value for CN1CCC(=C2c3ccccc3Oc3c(O)cccc32)CC1 [Cpd 18] ?
330 nM

Under delta opioid receptor (Rattus norvegicus): Ki value of Clc1ccc(Nc2cccc3c2Oc2ccccc2C3=C2CC3CCC(C2)N3)cc1 [Cpd 61] ?
395 nM

Query Ki on delta opioid receptor (Rattus norvegicus) for Oc1cccc2c1Oc1ccccc1C2=C1CC2CCC(C1)N2Cc1ccccc1 [Cpd 32]
0.023 nM

Param readout= Ki; system= delta opioid receptor (Rattus norvegicus); entry= c1cncc(Nc2cccc3c2Oc2ccccc2C3=C2CC3CCC(C2)N3)c1 [Cpd 62] ; returns value.
108 nM

Which measured Ki belongs to NC(=O)c1cccc2c1Oc1ccccc1C2=C1CC2CCC(C1)N2 [Cpd 3] , tested on delta opioid receptor (Rattus norvegicus)?
3.2 nM

---

Molecular target: delta opioid receptor (Rattus norvegicus, UniProt P33533)
Construct: the forebrains were homogenized in Tris buffer in a Teflon®-glass homogenizer; from tissue; host or cells: forebrain of male Wistar rats (particulate membrane preparation)
Sequence (P33533 whole entry): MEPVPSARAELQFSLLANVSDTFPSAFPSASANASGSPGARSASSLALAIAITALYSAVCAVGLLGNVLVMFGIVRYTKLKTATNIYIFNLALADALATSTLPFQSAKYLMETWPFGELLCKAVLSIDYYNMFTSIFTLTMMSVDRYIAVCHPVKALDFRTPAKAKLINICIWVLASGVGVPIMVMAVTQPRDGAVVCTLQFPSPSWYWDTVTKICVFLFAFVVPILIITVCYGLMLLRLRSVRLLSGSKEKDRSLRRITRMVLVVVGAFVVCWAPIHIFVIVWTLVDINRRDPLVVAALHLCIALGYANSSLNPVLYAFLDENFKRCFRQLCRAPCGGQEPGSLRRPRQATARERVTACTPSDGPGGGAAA
Test: Rat brain delta opioid receptor binding assay
Conditions: rDOR (Ki, nM): Rat delta opioid receptor binding constant, rat forebrain membranes; [3H]DPDPE or [3H]naltrindole, 25° C., 2.5 h
Observed Property: Ki (nM)
Give the value, in units of nM, as a plain number.

Observe how each entry below is paired with its result.
Oc1cccc2c1Oc1ccccc1C2=C1CCNCC1 [Cpd 16, 9-Piperidin-4-ylidene-9H-xanthen-4-ol]	15.1
Oc1cccc2c1Oc1ccccc1C2=C1CC2CCC(C1)N2Cc1ccccc1 (single isomer, unassigned) [Cpd 45]	9.62

For the next question, use this molecule.
Looking for the measured Ki of O=C(Nc1ccccc1)c1cccc2c1Oc1ccccc1C2=C1CC2CCC(C1)N2 (single isomer, unassigned) [Cpd 47] , can you help?
250

---

Target: delta opioid receptor (NG108-15 cell membranes) (Mus musculus, UniProt P32300)
Construct: NG108-15 cell membranes were purchased from Applied Cell Sciences (Rockville, Md.); host or cells: NG108-15 cell membranes (purchased)
Sequence (P32300 whole entry): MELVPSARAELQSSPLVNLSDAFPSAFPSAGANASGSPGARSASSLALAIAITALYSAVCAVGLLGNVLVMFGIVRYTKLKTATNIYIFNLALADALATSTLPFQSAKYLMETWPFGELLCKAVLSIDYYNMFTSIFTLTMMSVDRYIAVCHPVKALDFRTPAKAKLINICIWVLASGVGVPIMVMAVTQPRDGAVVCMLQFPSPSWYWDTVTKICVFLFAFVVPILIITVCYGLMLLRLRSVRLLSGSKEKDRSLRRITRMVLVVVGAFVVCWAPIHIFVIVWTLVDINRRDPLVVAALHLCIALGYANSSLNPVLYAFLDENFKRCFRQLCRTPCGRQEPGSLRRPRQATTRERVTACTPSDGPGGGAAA
Test: [35S]GTPγS binding assay in NG108-15 cell membranes (delta opioid)
Type: biochemical
Conditions: delta GTPγS binding EC50 (nM)
Observed Property: log10 EC50 (log10 of the value in nM)
Values reflect log10 of reported EC50 (nM).

Oc1cccc2c1Oc1ccccc1C2=C1CC2CCC(C1)N2Cc1ccccn1	1.34

Tell me the measured log10 EC50 of Oc1cccc2c1Oc1ccccc1C2=C1CC2CCC(C1)N2Cc1ccccc1 (single isomer, unassigned) [Cpd 45] , please.
3.15

Which log10 EC50 value is on record for CN1C2CCC1CC(=C1c3ccccc3Oc3c(O)cccc31)C2 [Cpd 19] ?
2.89

Reported log10 EC50 for Oc1cccc2c1Oc1ccccc1C2=C1CC2CCC(C1)N2Cc1ccoc1 : what is it?
0.03

Would you kindly share the measured log10 EC50 for Oc1cccc2c1Oc1ccccc1C2=C1CC2CCC(C1)N2Cc1ccccc1 [Cpd 32] ?
1.46

Need log10 EC50, item NC(=O)c1cccc2c1Oc1ccccc1C2=C1CC2CCC(C1)N2 (single isomer, unassigned) [Cpd 37]
2.19

For the compound O=C(NCCc1ccccc1)c1cccc2c1Oc1ccccc1C2=C1CC2CCC(C1)N2 , what log10 EC50 is on record?
1.02

Can you share its log10 EC50? I mean this compound: CNC(=O)c1cccc2c1Oc1ccccc1C2=C1CC2CCC(C1)N2
2.79

I would be grateful if you could share the reported log10 EC50 for NC(=O)c1cccc2c1Oc1ccccc1C2=C1CC2CCC(C1)N2 [Cpd 3] .
1.62
